Origin of measurements: ChEMBL document CHEMBL1201862

Test system: NCI-H460
Test: NCI tumour cell line growth inhibition, 48 h
The source made the active and inactive calls. No stated cut-off is given here; in the data, active = GI50 up to about 1.1 µM and inactive = higher.
Respond with a class label; see active, inactive

1) Cc1ccsc1C(=S)Nc1ccc(Cl)c(C(=O)OC(C(C)C)C(C)C)c1
inactive

Would you kindly look at the next entry?
Test call, this compound: COc1ccc(CCNC(=S)NC=C2C(=O)c3ccccc3C2=O)cc1OC inactive

----------
System: SNB-75
Experiment: NCI tumour cell line growth inhibition, 48 h
Activity calls are given as the source filed them. Cut-off read from the data, not from the text of the source: active = GI50 up to about 1.1 µM and inactive = higher.
Respond with a class label; see YES for active, NO for inactive

1. S=C(Nc1ccccn1)Nc1ccccc1Cl
NO

Test call, this compound: Nc1nc(N)c2cc(Sc3ccc4ccccc4c3)ccc2n1 NO

Test call, this compound: C[C@H](C1CC2(C)OC2(C)C(=O)O1)[C@H]1CC[C@H]2[C@@H]3[C@@H]4O[C@@H]4[C@@]4(O)CC=CC(=O)[C@]4(C)[C@H]3CC[C@]12C (stereo not given in full) NO

Test call, this compound: CN1C(=O)c2ccccc2NC(=O)c2cnn(C)c21 NO

Test call, this compound: Oc1cc(-c2cccc(OC(F)(F)F)c2)nc2ccc(N3CCCC3)cc12 YES
